Molecular target: AcrB (Escherichia coli, UniProt P31224)
Construct: made in house; host or cells: E. coli C41(DE3)
Sequence (P31224 whole entry): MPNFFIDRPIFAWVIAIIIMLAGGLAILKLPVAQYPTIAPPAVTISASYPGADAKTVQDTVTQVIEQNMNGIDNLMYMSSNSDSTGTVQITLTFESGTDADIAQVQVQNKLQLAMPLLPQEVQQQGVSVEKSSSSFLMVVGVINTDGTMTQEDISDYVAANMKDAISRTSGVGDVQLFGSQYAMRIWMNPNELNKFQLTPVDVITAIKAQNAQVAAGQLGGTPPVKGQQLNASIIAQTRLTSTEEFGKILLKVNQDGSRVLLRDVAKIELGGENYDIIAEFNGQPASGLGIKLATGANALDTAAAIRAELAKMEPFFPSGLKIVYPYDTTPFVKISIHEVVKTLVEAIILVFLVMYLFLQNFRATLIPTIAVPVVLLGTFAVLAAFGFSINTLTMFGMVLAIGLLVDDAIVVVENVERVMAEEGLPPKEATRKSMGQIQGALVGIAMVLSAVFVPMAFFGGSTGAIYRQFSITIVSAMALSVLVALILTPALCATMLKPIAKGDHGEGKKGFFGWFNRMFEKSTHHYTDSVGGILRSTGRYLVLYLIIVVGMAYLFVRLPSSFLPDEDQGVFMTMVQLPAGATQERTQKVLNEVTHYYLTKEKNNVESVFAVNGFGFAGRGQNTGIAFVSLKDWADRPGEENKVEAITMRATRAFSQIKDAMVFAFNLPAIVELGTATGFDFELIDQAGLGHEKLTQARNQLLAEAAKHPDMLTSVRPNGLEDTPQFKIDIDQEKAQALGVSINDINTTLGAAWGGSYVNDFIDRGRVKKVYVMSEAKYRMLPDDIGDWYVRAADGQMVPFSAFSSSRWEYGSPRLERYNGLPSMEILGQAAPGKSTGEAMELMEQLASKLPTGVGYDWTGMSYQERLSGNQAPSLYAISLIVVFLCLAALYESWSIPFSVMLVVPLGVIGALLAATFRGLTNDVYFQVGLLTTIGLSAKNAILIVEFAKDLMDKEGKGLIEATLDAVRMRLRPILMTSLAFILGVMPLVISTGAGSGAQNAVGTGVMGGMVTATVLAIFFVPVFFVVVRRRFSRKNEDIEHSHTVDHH
Experiment: Extraction of AcrB from membranes (SDS-PAGE of supernatant)
Parameters: species or system bacterial; same expression system (E. coli C41DE3)
Settings: detergent 10 g/l unless indicated otherwise; 2 h at 4° C.
Recorded metric: extraction of AcrB

| Compound | Meas value |
| --- | --- |
| CCCCCCCCCCCCCC(=O)N[C@@H](COCc1cn(CCO[C@@H]2OC(CO)[C@@H](O)C(O)C2O)nn1)C(=O)N[C@H](CCC(=O)O)C(=O)O (stereo partly drawn) | extracting |
| CCCCCCCCCCCCCCCCCCC(=O)N[C@@H](COCc1cn(CCO[C@@H]2OC(CO)[C@@H](O[C@H]3OC(CO)[C@@H](O)C(O)C3O)C(O)C2O)nn1)C(=O)N[C@H](CCC(=O)O)C(=O)O (stereo partly drawn) | extracting |
| CCCCCCCCCCCCC(CCCCCCCCCCCC)C(=O)N[C@@H](COCc1cn(CCO[C@@H]2OC(CO)[C@@H](O)C(O)C2O)nn1)C(=O)N[C@H](CCC(=O)O)C(=O)O (stereo partly drawn) | extracting |
